- testedTarget: Ataxin-2 (Homo sapiens)
- assayText: qHTS for Inhibitors of ATXN expression.
- Assay type: functional
Out of some 400,000 compounds screened, about 2,100 (0.53%) were called active. Not shown: some 14% with an inconclusive outcome. How the calls were made is not given here. The sample holds actives, similar compounds and a random draw of the others, so the mix is not that of the screen.
Outcomes: active, inactive

- compound: "Cc1csc(N=Nc2ccc(N(C)C)cc2)[n+]1[O-]"
  qualitativeLabel: "active"
- compound: "CN(C)CCn1cnc2c(c1=N)C(c1ccccc1)c1ccc3ccccc3c1O2 (stereo unspecified)"
  qualitativeLabel: "active"
- compound: "COCCCn1c(C(=O)NCCN2CCOCC2)cc2c(=O)n3ccccc3nc21"
  qualitativeLabel: "inactive"
- compound: "CC(O)CNc1nc(NCc2ccccc2)c2cnn(C)c2n1 (stereo unspecified)"
  qualitativeLabel: "inactive"
- compound: "COC(=O)c1cc(-n2cccc2)ccc1N1CCOCC1"
  qualitativeLabel: "inactive"
- compound: "OCCNc1c2ccccc2nc2ccccc12"
  qualitativeLabel: "inactive"
- compound: "COc1ccc(C2c3c(ncn(CCN4CCOCC4)c3=N)Oc3ccc4ccccc4c32)cc1OC (stereo unspecified)"
  qualitativeLabel: "active"
- compound: "c1ccc(CNc2nc(NCc3ccccc3)c3ccccc3n2)cc1"
  qualitativeLabel: "active"
- compound: "COc1ccc(C2c3ccc4ccccc4c3Oc3ncn(CCCO)c(=N)c32)cc1 (stereo unspecified)"
  qualitativeLabel: "active"
- compound: "Cc1ccc2nc3c(cc2c1)c(C)nn3-c1ccccc1"
  qualitativeLabel: "inactive"
- compound: "O=C1CCCC(O)=C1C1C2=C(CCCC2=O)OC2=C1C(=O)CCC2"
  qualitativeLabel: "inactive"

====

- testedTarget: Ataxin-2 (Homo sapiens) (UniProt Q99700)
- Sequence (Q99700 whole entry): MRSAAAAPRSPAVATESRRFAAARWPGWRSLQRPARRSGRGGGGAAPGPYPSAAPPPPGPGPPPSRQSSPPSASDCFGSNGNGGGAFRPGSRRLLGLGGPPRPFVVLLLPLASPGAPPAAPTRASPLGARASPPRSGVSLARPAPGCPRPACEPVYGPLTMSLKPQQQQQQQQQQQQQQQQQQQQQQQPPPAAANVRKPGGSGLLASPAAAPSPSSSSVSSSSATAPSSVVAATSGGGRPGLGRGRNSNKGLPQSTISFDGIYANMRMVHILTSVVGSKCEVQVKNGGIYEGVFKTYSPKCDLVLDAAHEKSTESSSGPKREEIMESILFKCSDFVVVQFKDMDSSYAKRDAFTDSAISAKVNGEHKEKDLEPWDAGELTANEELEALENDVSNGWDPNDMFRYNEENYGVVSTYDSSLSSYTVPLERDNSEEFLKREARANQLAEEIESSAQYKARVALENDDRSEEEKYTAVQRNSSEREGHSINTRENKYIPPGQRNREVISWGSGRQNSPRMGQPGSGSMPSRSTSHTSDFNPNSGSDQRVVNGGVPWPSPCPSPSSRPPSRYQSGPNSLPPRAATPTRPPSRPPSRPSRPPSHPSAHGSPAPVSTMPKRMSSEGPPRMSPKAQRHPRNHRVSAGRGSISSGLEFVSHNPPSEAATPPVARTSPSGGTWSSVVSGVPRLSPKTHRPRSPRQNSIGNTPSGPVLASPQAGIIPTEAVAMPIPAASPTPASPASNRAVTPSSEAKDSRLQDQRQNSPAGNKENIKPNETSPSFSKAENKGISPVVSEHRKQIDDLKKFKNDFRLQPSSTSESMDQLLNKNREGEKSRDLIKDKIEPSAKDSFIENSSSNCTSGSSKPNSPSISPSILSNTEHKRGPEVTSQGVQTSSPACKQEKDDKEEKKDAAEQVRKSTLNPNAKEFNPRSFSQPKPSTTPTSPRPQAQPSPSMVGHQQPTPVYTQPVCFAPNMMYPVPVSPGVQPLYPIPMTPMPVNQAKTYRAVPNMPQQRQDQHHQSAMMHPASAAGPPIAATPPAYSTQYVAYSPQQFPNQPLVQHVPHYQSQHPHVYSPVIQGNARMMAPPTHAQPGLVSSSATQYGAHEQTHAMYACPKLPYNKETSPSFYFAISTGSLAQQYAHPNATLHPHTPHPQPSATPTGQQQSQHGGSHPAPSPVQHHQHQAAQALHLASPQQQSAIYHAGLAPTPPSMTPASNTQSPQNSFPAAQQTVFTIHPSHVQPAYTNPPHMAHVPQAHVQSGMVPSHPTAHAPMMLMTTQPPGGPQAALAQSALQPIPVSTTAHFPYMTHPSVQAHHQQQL
- assayText: qHTS for Inhibitors of ATXN expression.
- Type: functional
Screen size: about 400,000 compounds; about 2,100 (0.53%) were called active. Not shown: some 14% with an inconclusive outcome. The rule behind the calls is not given here. The full list was thinned out, with actives kept by preference.
Labels: active, inactive

- compound: "COc1ccc(/C=N/N(C)C2=NS(=O)(=O)c3ccccc32)cc1"
  qualitativeLabel: "inactive"
- compound: "CN1C[C@@H]2[C@@H]3C(=O)N(Cc4ccccc4)C(=O)[C@@H]3[C@](Cc3ccccc3)(C1=O)N2C(=O)c1ccc(C(C)(C)C)cc1"
  qualitativeLabel: "active"
- compound: "Cc1nc2ccccc2c2oc(C(=O)NCC3COc4ccccc4O3)cc12 (stereo unspecified)"
  qualitativeLabel: "active"
- compound: "CC[n+]1c(/C=C/c2ccc(OC(C)=O)c(OC)c2)ccc2ccccc21"
  qualitativeLabel: "active"
- compound: "COc1cc(OC)c(OC)cc1CNCC1COc2ccccc2O1 (stereo unspecified)"
  qualitativeLabel: "inactive"
- compound: "CC1CCC(NC(=O)COC(=O)CNC(=O)c2ccc3ccccc3c2)CC1 (stereo unspecified)"
  qualitativeLabel: "inactive"
- compound: "CN(C)c1ccc(/C=C/c2ccc3ccccc3n2)cc1"
  qualitativeLabel: "inactive"
- compound: "CC[n+]1c(/C=C/c2ccc(N(C)C)cc2)ccc2ccccc21"
  qualitativeLabel: "active"
- compound: "CNC(=O)CSc1nc2ccccc2c(=O)n1C1CCCCC1"
  qualitativeLabel: "inactive"
- compound: "COc1cc(C(=O)NCCCNc2nc3cc(C)c(C)cc3cc2C#N)cc(OC)c1OC"
  qualitativeLabel: "inactive"
- compound: "CCN(CC)c1ccc(/C=C/c2ccc3ccc(OC)cc3[n+]2CC)cc1"
  qualitativeLabel: "active"
- compound: "Cc1ccc(S(=O)(=O)N(C)C)cc1-n1c(SCC(=O)N(C)C)nc2ccccc2c1=O"
  qualitativeLabel: "inactive"
- compound: "CC(C)OCCCNC(=O)CN1C(=O)c2cccc3cccc1c23"
  qualitativeLabel: "inactive"
- compound: "COCc1c(C(=O)N2CCC(N3CCCCC3)CC2)cnn1-c1ncc(C)c(-c2cccs2)n1"
  qualitativeLabel: "inactive"
- compound: "Cc1nn(-c2ccccc2)c(C)c1/C=N/NC(=O)CSc1nc2ccccc2c(=O)n1-c1ccc(Br)cc1"
  qualitativeLabel: "active"
- compound: "Cc1sc2ncn(CC(=O)NCC3COc4ccccc4O3)c(=O)c2c1S(=O)(=O)N1CCCCC1 (stereo unspecified)"
  qualitativeLabel: "inactive"
- compound: "COc1ccc(-c2cc(C(F)(F)F)n3ncc(C(=O)NCC4CCCO4)c3n2)cc1 (stereo unspecified)"
  qualitativeLabel: "inactive"
- compound: "CCN(CC)c1ccc2cc(C(N)=O)/c(=N\\NC(=O)c3ccncc3)oc2c1"
  qualitativeLabel: "inactive"
- compound: "CCOC(=O)c1cnn2c(O)cc(C)nc12"
  qualitativeLabel: "inactive"
- compound: "CC(=O)NNC(=O)c1sc(=S)n2c1[nH]c(=O)c1sccc12"
  qualitativeLabel: "inactive"
- compound: "Cc1ccsc1/C=C1\\Oc2cc(O)ccc2C1=O"
  qualitativeLabel: "inactive"
